Test: yeast display, Sf9 membrane polyspecificity reagent, FACS + sequencing; frameworks hold sequencing errors
MEASURED METRIC: polyreactivity (PSR sort gate)

QDQLVDSGGGLVQAGGSLRLSCAASGFTLAYNTMGWYRQAPGKERELVASITSSGSSTYYADSEKGRFTITRDNGKYNVYLEMNSLKPEDTAVYYFNKVRPRKFWDYYYWGQGTQVTVSS	high polyreactivity
QVQLVESGGGLVQAGGSLRLSCAASGIIFQGYVMGWYRQAPGKERELVAVISRTRGSTYYADSVKGRFTISRDNAKNTVYLQMNSLKPEDTAVYYCAAGTPRLRYLQGHRMNYWGQGTQVTVSS	high polyreactivity
QVQLVESGGGLVQAGGSLRLSCAASGSTFYYYAMGWYRQAPGKEREFVAAITFRGGSTYYADSVKGRFTISRDNAKNTVYLQMNSLKPEDTAVYYCAAKPPFRNYVRYDYWGQGTQVTVSS	high polyreactivity
QVQLVESGGGLVQAGGSLRLSCAASGSTFRRYAMGWYRQAPGKEREISTSDGSTYYADSVKGRFTISRDNAKNTVYLQMNSLKPEDTAVYYCAADGYRQLIEDITDDYWGQGTQVTVSS	low polyreactivity
QVQLVESGGGLVQAGGSLRLSCAASGSTLSHYAMGWYRQAPGKERELVAAINSNGGSTYYADSVKGRFTISRDNAKNTVYLQMNSLKPEDTAVYYCKTYFRYFSFYGRPFDYWGQGTQVTVSS	high polyreactivity

Form field polyreactivity (PSR sort gate), entry QVQLVESGGGLVQAGGSLRLSCAASGRIFWHYAMGWYRQAPGKERELVAAIDYSGGRTRYADSVKGRFTISRDNAKNTVYLQMNSLKPEDTAVYYCAARRSSWGSFTGYYYWGQGTQVTVSS : high polyreactivity

Form field polyreactivity (PSR sort gate), entry QVQLVESGGGLVQSGGSLRLSCAGSGSTLYYYVMGWYRQAPGKERELVAAISSSGDSTYYADSVKGRFTISRDNAKNTVSLQMNSLKPEDTAVYYCNAGWYFYGESTDDYWGQGTQVTVSS : low polyreactivity

Form field polyreactivity (PSR sort gate), entry QVQLVESGGGLVQAGGSLRLSCAASGFTFWDYAMGWYRQSPGKERELVAAISSRGTRTYYADSVKGRFTISRDNAKNTVYLQMNSLKPEDTAVYYCATAITDPDYIHNYWGQGTQVTVSS : high polyreactivity

====

Test: yeast display, Sf9 membrane polyspecificity reagent, FACS + sequencing; frameworks hold sequencing errors
MEASURED METRIC: polyreactivity (PSR sort gate)

Worked examples follow.
QVQLVESGGGLVQAGGSLRLSCAASGRTFLSYAMGWYRQAPGKERELVATITRRGGSTYYADSVKGRFTISRDNAKNTVYLQMNSLKPEDTAVYYCAAYYRQYSSSEFGYWGQGTQVTVSS	high polyreactivity
QDQHVESGGGLVQAGGRLSLICAASAFISVRNAMGWYRQAPGKERELVAAISSGDTTDYADSLKGRFTISRDNAKNTVYLLMNSLKPEDTAVYYCAAVYSGRYYYWGQGTQVTVSS	low polyreactivity
QVQLVESGVRLVQAGGSHRLSCAASARTFYPNAMGWYRQAPGKEREFVARISDSGGSSYYADSVKGRFTISRDNAKNTVYLQMNSLKPEDTAVYYCAADYVDPRVNEYDYWGQGTQVTVST	low polyreactivity
QVQLVESGGGLVQAGGSLRLSCAASGRILVHNAMGWYRQAPGKERELVAVITARGASTYYADSVKGRFTISRDNAKNTVYLQMNSLKPEDTAVYYCATDKRPKYYNQYDYWGQGTQVTVSS	low polyreactivity
QVQLVESGGGLDQAGGSLRLSCAASGRIFTYNAMGWYRPAPGKERELVAVISRRGGSTYYADSVKGRFTISRDNAKNTVYLQMNSLKPEDTAVYYCAAGGSVFYDNRYDYWGQGTQVTVSS	low polyreactivity
QVQLVESGGGLVQAGGSLRISCAASGRIFPFYAMGWYRQAPGKDRELVAAIRSGGGSTYYADSVKGRFTISRDNAKKTVYLQRNSLKPEDTAVYYCTARGRLGSAGRYNYWGQGTQVTVSS	high polyreactivity
QVQLVESGGCLVQAGGSRRLSCAASGLTIYHYAMGWYRQATGKERELVAAITNGYSTYYADSVKGRFTISLDNAMNTVYLQMNSLKPEDTAVYSCNADQPGDQHSGYWGQGTQVTVSS	low polyreactivity
QDQLVESGGGLVQAGGSLRLSCAASGGIFFIYVMGWYRQAPGKERELVAAISGSGGTTYYADSVKGRFTISRDNAKNTVYLQMNSLKPEDTAVFYCNRVSDYTLYYWGQGTQVTVSS	low polyreactivity
QVQLVESGGCLVQAGGSLRLSCAASGRTFYTYAMGWYRQAPGQERELVAAITYRGGNTYYADSVKGRFTISRDNAKNTVYLQMNSLKREDTAVYYCAATYKRRSGQSFDYWGQGTQVTVSS	high polyreactivity
QVQLVESGGGLVQAGGSLRLSCAASGFIFLWYAMGWYRQAPGKERELVAAISSGGGRTHYADSVKGRFTISRDNAKNTVYLQMNSLKPEDTAVYYCAAALRGQASRFDYWGQGTKVTVSS	high polyreactivity

Form field polyreactivity (PSR sort gate), entry QVQLVESGGRLVQAGGSLRLSCAASGLTFVYNTMGWYSQAPGKERKLVAAISSSGGTTYYADSVKGRFTISRDNAKNTVYLQMNSLKPEDTAVYYCAARPSGGYESTRTRDYWGQGTQVTVSS : low polyreactivity

Form field polyreactivity (PSR sort gate), entry QVQLVESGGGLVQAGGSLRLSCAASGRTLYRNAMGWYRQAPGKERELVARITWSGASTYYADSVKGRFTISRDNAKNTVYLQMNSLKPDDTAVYYCNTGYWYVSLGSYDYYGEYDYWGQGTQVTVSS : high polyreactivity

Form field polyreactivity (PSR sort gate), entry QVQLVESGGGLVHAGGSLRLSCAASGFIFAANAKGWYRQAPGKERELVAAINYRGSSTYYADSVKGRFTISRDNAKNTVYLQMNSLKPYDTAVYYCAAVSSIYSGYGYWGQGTQVTVSS : high polyreactivity

Form field polyreactivity (PSR sort gate), entry QVQLVESGGGLVQAGGSLRLSCAASGFIWSYVMGWYRQAPGKESQLVAAISRSCGRTYYADSVKGRFTISRDNAKNTVYLQMNSLKPEDTAVYYCAKDGGWSRLHYNYWGQGNQVTVSS : high polyreactivity

Form field polyreactivity (PSR sort gate), entry QVQLVESGGGLVQAGGSLRLSCAASGFTIYRYAMGWSRQAPGKERELVAAISGGGSRTYYADSVKGRFTISRDNAKNTVYLLMNSLKPEDTAVYYCNADPVKYSYDGYARPRYDYWGQGTQVTVSS : low polyreactivity
